system: phospho-Ser-473-Akt; assay: AKT phosphorylation inhibition, Western blot cell assay; assay type: cell-based; details: Homo sapiens; read-out: IC50, cell assay (p-AKT Western Blot)
pIC50: −log10 of the molar value.

{"columns": ["Smiles structure", "Target or test system", "pIC50"],
 "data": [
  ["CS(=O)(=O)N1CCN(Cc2cn3c(Cl)c(-c4cnc(N)nc4)nc(N4CCOCC4)c3n2)CC1", "phospho-Ser-473-Akt", 8.30]
]}

====

molecular target: PI3K (p110α/p85α) (Homo sapiens); construct: purchased Carna Biosciences 07CBS-0402A; experiment: PI3K activity assay (ADP Hunter Plus); assay type: biochemical; settings: quantitative results, Table 4; read-out: PI3Kα IC50
Each entry below lists one item and its recorded IC50 value.
Property name: IC50 (µM)

{"columns": ["Smiles structure", "Target or test system", "Experimental result"],
 "data": [
  ["CS(=O)(=O)N1CC2(CCN(Cc3cn4cc(-c5cccc6[nH]ncc56)nc(N5CCOCC5)c4n3)CC2)C1", "PI3K (p110α/p85α) (Homo sapiens)", 3],
  ["CS(=O)(=O)N1CCN(Cc2cn3cc(-c4ccc5[nH]ncc5c4)nc(N4CCOCC4)c3n2)CC1", "PI3K (p110α/p85α) (Homo sapiens)", 37]
]}

====

molecular target: PI3K (p110α/p85α) (Homo sapiens, UniProt P42336); construct: purchased Carna Biosciences 07CBS-0402A; test: PI3K activity assay (ADP Hunter Plus); format: biochemical; details: quantitative results; read-out: PI3Kα IC50
Sequence (P42336 whole entry): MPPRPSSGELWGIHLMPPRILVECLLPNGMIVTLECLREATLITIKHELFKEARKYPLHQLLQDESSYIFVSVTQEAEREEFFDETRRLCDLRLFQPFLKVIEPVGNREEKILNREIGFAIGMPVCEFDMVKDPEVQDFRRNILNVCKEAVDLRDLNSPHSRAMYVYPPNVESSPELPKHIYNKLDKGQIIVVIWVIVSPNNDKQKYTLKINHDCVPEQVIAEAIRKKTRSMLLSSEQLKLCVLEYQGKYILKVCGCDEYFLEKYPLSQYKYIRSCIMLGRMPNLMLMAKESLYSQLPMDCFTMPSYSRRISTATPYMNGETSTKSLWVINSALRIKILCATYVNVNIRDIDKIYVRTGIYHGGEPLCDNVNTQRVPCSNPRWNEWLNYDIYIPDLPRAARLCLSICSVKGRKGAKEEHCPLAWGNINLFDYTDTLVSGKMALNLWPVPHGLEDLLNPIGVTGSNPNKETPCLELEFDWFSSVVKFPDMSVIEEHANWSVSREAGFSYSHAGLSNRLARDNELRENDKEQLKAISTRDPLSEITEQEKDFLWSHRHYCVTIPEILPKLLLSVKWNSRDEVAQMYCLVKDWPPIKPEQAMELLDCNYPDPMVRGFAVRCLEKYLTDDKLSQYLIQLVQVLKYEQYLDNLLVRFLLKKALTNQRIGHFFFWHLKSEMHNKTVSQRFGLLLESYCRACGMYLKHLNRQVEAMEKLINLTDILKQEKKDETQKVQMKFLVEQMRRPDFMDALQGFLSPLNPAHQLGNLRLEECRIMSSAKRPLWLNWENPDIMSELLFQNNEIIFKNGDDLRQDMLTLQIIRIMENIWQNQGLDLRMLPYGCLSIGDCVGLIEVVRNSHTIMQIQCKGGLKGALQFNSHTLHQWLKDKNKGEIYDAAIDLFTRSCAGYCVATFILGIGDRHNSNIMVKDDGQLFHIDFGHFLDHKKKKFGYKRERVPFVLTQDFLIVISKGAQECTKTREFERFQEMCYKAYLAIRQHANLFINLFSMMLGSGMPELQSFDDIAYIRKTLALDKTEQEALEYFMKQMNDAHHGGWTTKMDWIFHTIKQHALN
Sequence (P27986 whole entry partner): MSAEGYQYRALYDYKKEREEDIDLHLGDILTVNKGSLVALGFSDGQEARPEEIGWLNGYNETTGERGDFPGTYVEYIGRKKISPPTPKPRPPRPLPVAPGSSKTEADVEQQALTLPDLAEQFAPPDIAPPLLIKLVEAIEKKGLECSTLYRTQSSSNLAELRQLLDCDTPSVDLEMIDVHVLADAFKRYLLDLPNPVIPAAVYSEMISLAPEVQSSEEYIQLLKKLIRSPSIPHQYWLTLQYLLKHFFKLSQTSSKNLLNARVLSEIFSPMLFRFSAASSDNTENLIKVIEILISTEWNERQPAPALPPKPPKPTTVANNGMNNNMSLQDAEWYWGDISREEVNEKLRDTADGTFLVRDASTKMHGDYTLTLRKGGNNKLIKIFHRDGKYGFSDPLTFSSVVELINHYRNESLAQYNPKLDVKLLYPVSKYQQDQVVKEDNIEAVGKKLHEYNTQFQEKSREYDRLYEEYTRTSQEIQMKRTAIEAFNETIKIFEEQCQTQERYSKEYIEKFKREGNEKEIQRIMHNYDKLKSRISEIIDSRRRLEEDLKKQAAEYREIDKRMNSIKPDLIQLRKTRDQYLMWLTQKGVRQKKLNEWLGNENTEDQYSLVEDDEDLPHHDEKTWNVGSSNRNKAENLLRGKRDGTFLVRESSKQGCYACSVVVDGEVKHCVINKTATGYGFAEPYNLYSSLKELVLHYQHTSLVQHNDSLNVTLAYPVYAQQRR
Each entry below lists one item and its recorded log10 IC50 value.
Property name: log10 IC50 (log10 of the value in µM)

{"columns": ["Compound", "log10 IC50"],
 "data": [
  ["Cc1cn2cc(-c3cccc(NS(C)(=O)=O)c3)nc(N3CCOCC3)c2n1 [Compound 2-28]", 1.70],
  ["CS(=O)(=O)N1CCN(Cc2cn3cc(-c4ccc(N)nc4)nc(N4CCOCC4)c3n2)CC1 [Compound 2-66]", -0.77],
  ["CS(=O)(=O)N1CCN(Cc2cn3cc(-c4ccc(C(N)=O)cc4)nc(N4CCOCC4)c3n2)CC1 [Compound 2-68]", 1.04],
  ["CNC(=O)Nc1ccc(-c2cn3cc(CN4CCN(S(C)(=O)=O)CC4)nc3c(N3CCOCC3)n2)cc1 [Compound 2-82]", -0.80],
  ["COc1ccc(-c2cn3cc(CN4CCN(S(C)(=O)=O)CC4)nc3c(N3CCOCC3)n2)cn1 [Compound 2-61]", 0.65],
  ["CS(=O)(=O)N1C2CCC1CN(Cc1cn3cc(-c4cnc(N)nc4)nc(N4CCOCC4)c3n1)C2 [Compound 2-228]", -0.97],
  ["CS(=O)(=O)N1CCN(Cc2cn3cc(-c4cnc5[nH]ccc5c4)nc(N4CCOCC4)c3n2)CC1 [Compound 2-75]", -0.95],
  ["Cc1cn2cc(-c3ccc4cc[nH]c4c3)nc(N3CCOCC3)c2n1 [Compound 2-25]", 1.00]
]}

====

biological target: PI3K (p110α/p85α) (Homo sapiens, UniProt P42336); construct: purchased Carna Biosciences 07CBS-0402A; experiment: PI3K activity assay (ADP Hunter Plus); type: biochemical; conditions: semi-quantitative results; read-out: PI3Kα IC50 (semi-quantitative class)
pIC50: −log10 of the molar value.

{"columns": ["Molecule", "Target or test system", "pIC50"],
 "data": [
  ["COc1cncc(-c2cn3cc(CN4CCN(S(C)(=O)=O)CC4)nc3c(N3CCOCC3)n2)c1 [Compound 2-65]", "PI3K (p110α/p85α) (Homo sapiens, UniProt P42336)", "< 6.00"],
  ["CS(=O)(=O)N1CCN(c2cnc3c(N4CCOCC4)nc(-c4cccc5[nH]ncc45)cn23)CC1 [Compound 2-41]", "PI3K (p110α/p85α) (Homo sapiens, UniProt P42336)", "6.00 to 7.00"],
  ["CN1CCN(c2cnc3c(N4CCOCC4)nc(-c4cccc5[nH]ncc45)cn23)CC1 [Compound 2-38]", "PI3K (p110α/p85α) (Homo sapiens, UniProt P42336)", "6.00 to 7.00"],
  ["O=C(c1cn2cc(-c3cccc4[nH]ncc34)nc(N3CCOCC3)c2n1)N1CCNCC1 [Compound 2-18]", "PI3K (p110α/p85α) (Homo sapiens, UniProt P42336)", "6.00 to 7.00"]
]}

====

target: PI3K isoform p110δ (Homo sapiens); experiment: Inhibition of PI3K isoform p110δ
Sequence (O00329 whole entry, one chain of several, canonical isoform): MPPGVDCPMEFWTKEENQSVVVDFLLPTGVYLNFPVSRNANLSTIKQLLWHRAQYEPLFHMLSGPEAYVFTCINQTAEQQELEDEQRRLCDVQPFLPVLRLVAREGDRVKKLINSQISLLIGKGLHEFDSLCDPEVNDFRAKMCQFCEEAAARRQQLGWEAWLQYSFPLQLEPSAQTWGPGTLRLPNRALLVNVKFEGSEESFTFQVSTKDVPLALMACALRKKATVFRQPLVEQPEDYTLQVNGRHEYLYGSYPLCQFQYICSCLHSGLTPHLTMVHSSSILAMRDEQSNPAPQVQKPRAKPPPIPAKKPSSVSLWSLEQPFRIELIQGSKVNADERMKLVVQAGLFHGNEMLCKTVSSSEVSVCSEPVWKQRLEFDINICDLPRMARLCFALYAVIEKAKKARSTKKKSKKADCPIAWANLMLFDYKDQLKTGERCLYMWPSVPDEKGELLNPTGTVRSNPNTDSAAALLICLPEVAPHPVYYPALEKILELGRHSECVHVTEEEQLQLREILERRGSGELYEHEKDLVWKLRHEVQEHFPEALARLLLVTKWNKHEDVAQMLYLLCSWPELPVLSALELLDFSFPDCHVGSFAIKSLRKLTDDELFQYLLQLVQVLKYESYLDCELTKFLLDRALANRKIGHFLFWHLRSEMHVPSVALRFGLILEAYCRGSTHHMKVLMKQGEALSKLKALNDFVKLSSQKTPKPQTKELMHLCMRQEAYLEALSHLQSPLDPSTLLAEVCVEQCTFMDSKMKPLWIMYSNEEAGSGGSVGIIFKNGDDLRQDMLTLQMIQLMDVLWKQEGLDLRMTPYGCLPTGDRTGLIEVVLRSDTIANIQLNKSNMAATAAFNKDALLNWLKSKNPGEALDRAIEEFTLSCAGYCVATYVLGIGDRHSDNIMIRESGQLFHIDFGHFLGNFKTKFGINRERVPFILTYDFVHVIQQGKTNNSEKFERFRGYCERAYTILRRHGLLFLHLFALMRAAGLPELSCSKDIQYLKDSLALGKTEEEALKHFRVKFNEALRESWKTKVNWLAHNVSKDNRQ
Property name: Ki (nM)

{"columns": ["Smiles structure", "Target or test system", "Experimental result"],
 "data": [
  ["CS(=O)(=O)N1CCN(Cc2cn3c(Cl)c(-c4cnc(N)nc4)nc(N4CCOCC4)c3n2)CC1", "PI3K isoform p110δ (Homo sapiens)", 9.8]
]}

====

biological target: PI3K isoform p110γ (Homo sapiens, UniProt P48736); assay: Inhibition of PI3K isoform p110γ
Sequence (P48736 whole entry, canonical isoform): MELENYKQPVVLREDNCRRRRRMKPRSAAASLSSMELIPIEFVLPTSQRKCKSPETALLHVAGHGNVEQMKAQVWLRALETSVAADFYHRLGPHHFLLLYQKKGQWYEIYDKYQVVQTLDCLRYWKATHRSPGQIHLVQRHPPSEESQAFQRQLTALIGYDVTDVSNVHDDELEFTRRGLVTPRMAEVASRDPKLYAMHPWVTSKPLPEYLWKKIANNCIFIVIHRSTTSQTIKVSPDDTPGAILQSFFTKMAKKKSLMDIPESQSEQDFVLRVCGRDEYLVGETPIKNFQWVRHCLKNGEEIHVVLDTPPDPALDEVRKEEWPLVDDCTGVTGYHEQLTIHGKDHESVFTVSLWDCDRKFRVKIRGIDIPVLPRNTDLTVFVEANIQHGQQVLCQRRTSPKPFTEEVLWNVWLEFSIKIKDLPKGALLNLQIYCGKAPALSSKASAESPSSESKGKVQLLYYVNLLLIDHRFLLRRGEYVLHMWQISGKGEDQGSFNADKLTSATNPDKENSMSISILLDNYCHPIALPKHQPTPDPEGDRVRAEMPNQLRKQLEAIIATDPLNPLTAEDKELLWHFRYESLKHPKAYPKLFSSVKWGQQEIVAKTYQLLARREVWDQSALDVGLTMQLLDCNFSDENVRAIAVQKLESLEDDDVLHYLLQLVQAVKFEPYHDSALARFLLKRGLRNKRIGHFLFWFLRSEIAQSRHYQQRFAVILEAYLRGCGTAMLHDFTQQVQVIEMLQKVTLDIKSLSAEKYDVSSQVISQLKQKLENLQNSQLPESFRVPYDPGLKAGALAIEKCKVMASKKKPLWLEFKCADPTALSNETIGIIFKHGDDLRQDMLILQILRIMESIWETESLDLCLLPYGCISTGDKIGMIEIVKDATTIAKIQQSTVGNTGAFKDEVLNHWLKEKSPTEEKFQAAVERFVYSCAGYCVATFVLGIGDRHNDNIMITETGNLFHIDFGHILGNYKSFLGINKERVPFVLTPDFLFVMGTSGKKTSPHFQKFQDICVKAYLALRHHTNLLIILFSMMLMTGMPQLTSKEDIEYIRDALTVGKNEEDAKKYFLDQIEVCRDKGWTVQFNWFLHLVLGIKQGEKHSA
Property name: Ki

{"columns": ["Compound", "Property name", "Experimental result"],
 "data": [
  ["CS(=O)(=O)N1CCN(Cc2cn3c(Cl)c(-c4cnc(N)nc4)nc(N4CCOCC4)c3n2)CC1 [Compound A]", "Ki", "> 100 nM"]
]}
